A set of molecules tested on UniProtKB P23458, with measured pIC50:
pIC50: −log10 of the molar value.

Identify the measured pIC50 of CN(c1ncnc2[nH]ccc12)N1CCC[C@H](C(=O)NCC(F)(F)C(F)(F)F)C1 (single isomer, unassigned) for UniProtKB P23458.
Sequence (P23458 whole entry): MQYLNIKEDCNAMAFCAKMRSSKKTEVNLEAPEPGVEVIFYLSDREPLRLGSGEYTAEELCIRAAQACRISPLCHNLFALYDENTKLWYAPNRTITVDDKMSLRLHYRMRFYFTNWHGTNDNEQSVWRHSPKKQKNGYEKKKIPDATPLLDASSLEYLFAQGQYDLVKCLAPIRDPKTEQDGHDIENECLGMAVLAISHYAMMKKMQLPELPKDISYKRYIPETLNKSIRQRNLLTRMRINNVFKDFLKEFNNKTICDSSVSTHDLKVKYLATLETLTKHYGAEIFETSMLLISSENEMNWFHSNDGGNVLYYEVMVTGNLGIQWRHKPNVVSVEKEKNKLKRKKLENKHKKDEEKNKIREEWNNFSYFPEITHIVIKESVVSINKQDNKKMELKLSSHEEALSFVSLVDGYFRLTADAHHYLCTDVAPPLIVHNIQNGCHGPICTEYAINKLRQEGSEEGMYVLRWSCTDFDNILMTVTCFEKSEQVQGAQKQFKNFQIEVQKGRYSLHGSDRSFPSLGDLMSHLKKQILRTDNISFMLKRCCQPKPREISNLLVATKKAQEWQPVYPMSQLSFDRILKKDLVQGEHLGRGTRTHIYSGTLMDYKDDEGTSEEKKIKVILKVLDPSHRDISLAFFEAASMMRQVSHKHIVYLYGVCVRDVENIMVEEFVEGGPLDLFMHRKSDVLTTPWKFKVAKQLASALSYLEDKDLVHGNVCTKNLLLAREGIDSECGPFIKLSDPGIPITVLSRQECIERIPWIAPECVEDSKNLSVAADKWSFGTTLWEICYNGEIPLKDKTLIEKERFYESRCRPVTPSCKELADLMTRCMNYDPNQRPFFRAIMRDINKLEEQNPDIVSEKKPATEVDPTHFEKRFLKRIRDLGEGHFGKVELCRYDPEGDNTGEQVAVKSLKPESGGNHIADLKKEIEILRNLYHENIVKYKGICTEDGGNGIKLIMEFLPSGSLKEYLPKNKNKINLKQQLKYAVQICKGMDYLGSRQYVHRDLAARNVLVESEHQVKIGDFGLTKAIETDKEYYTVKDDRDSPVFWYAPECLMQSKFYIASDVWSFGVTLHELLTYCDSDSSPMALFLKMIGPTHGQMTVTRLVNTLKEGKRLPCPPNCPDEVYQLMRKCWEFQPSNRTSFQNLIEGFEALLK
> 8.00

So what pIC50 did CN(c1ncnc2[nH]ccc12)N1CCCC(C(=O)NC2CC(F)(F)C2)C1 (centres unmarked) get with UniProtKB P23458?
> 8.00

Notebook entry, UniProtKB P23458 assay: pIC50 of CN(c1ncnc2[nH]ccc12)N1CCCC(NC(=O)CC#N)C1 (centres unmarked) = ?
6.00 to 7.00

What reported pIC50 corresponds to CN(c1ncnc2[nH]ccc12)N1CCCC(C(=O)NCC(F)F)C1 (centres unmarked) on UniProtKB P23458?
≥ 8.00

Please state recorded pIC50 (tested on UniProtKB P23458) of CN(c1ccnc2[nH]ccc12)N1CCCC(C(=O)NCC(F)(F)F)C1 (centres unmarked)
7.00 to 8.00

Lab note: need pIC50 with UniProtKB P23458 for entry CC(C)(C)OC(=O)N1CC2CN(Nc3ncnc4[nH]ccc34)CC2C1 (centres unmarked) , please look it up.
< 6.00

Record lookup: for UniProtKB P23458, what pIC50 belongs to CC1CCC(C(=O)NCC#N)CN1N(C)c1ncnc2[nH]ccc12 (centres unmarked) ?
6.00 to 7.00

Value wanted: pIC50 (UniProtKB P23458) of entry CN(c1ncnc2[nH]ccc12)N1CCC[C@@H](C(=O)NCC#N)C1 (single isomer, unassigned)
> 8.00

Notebook entry, UniProtKB P23458 assay: pIC50 of `CN(c1ncnc2[nH]ccc12)N1CCC(C(=O)NCC#N)CC1` = ?
7.00 to 8.00

Short answer please: pIC50, UniProtKB P23458, entry `CN(c1ncnc2[nH]ccc12)N1CCC(NC(=O)CC(F)(F)F)CC1`
7.00 to 8.00

Given the entry O=C(NCC(F)(F)F)C1CCCN(Nc2ncnc3[nH]ccc23)C1 (centres unmarked) , what pIC50 was observed with UniProtKB P23458?
> 8.00

Query the reported pIC50 for UniProtKB P23458; item: CN(c1ncnc2[nH]ccc12)N1CCCC(C(=O)NCC(F)(F)C(F)(F)F)C1 (centres unmarked)
≥ 8.00

Hello, I am looking for reported pIC50 with UniProtKB P23458 for COCNC(=O)C1CCCN(N(C)c2ncnc3[nH]ccc23)C1 (centres unmarked) . Could you help?
7.00 to 8.00

Provide the documented pIC50 with UniProtKB P23458 as the system for CC1CCC2CN1N(c1ncnc3[nH]ccc13)C2=O (centres unmarked)
< 6.00

Find pIC50 (UniProtKB P23458) for the entry CN(c1ncnc2[nH]ccc12)N1CCCC(CC#N)C1 (centres unmarked)
7.00 to 8.00

# query: pIC50 | item CN(c1ncnc2[nH]ccc12)N1CCCC(C(=O)NCC(F)(F)F)C1 (centres unmarked) [WX04] | system: UniProtKB P23458
> 8.00

GET /values?readout=pIC50&system=UniProtKB P23458&item= `N#CCNC(=O)C1CCN(Nc2ncnc3[nH]ccc23)CC1`
7.00 to 8.00

# get_value(readout= pIC50, system= UniProtKB P23458) for CN(c1ncnc2[nH]ccc12)N1CCC[C@H](C(=O)NCC(F)F)C1 (single isomer, unassigned)
6.00 to 7.00

Please tell me: pIC50 of CN(c1ncnc2[nH]ccc12)N1CCCC(C(=O)NCCC#N)C1 (centres unmarked) , system UniProtKB P23458?
7.00 to 8.00

Hello, I am looking for reported pIC50 with UniProtKB P23458 for CN(c1ncnc2[nH]ccc12)N1CCCC(C(=O)Nc2cccc(C(F)(F)F)c2)C1 (centres unmarked) . Could you help?
7.00 to 8.00

# value lookup — system UniProtKB P23458, readout pIC50, item `CN(c1ncnc2[nH]ccc12)N1CCC(NC(=O)CC#N)CC1`
7.00 to 8.00

Request: pIC50, test system UniProtKB P23458, entry CN(c1ncnc2[nH]ccc12)N1CCCC(C(=O)NCC(F)(F)F)C1 (single isomer, unassigned) [WX06]
6.00 to 7.00

So what pIC50 did CCOC(=O)C1CCCN(N(C)c2ncnc3[nH]ccc23)C1 (centres unmarked) get with UniProtKB P23458?
7.00 to 8.00

Origin of values: patent US10617690B2
